Data origin: ChEMBL document CHEMBL5108049

subject.of.test: LIM domain kinase 1 (Homo sapiens, UniProt P53667)
method.summary: Inhibition of recombinant full length LIMK1 (330 to 637 residues) (unknown origin) expressed in HEK293T cells incubated for 2 hrs in presence of tracer K10 by NanoBRET assay
Sequence (P53667 whole entry, the tested form may be a part): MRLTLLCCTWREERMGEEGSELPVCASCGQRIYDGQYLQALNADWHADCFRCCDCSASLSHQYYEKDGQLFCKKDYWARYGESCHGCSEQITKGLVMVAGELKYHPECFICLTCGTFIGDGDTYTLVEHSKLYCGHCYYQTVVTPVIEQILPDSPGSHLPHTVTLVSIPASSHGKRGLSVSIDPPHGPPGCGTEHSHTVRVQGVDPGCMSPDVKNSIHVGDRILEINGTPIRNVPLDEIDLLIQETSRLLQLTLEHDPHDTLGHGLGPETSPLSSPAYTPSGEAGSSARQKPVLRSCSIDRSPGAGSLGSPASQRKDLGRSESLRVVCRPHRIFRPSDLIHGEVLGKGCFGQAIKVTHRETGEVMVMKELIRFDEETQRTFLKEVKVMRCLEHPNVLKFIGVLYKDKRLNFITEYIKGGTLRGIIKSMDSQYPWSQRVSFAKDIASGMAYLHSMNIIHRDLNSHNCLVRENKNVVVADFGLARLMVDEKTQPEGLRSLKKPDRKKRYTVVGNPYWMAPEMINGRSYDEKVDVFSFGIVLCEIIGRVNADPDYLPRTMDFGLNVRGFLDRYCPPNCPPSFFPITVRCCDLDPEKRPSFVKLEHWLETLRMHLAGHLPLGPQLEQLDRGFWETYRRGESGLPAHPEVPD
IC50 for assorted compounds
test.readout: IC50 (nM)

[[record]]
mol_smiles = "O=C(c1ccc(S(=O)(=O)Nc2ccccc2)cc1)N(CCc1cn(Cc2ccccc2)nn1)Cc1ccccc1"
experimental_value = 472

[[record]]
mol_smiles = "O=C(c1ccc(S(=O)(=O)Nc2ccccc2)cc1)N(CCc1ccccc1)Cc1ccccc1"
experimental_value = 251


====

As shown below, each of these molecules has a reported ΔTm value.
subject.of.test: LIM domain kinase 1 (Homo sapiens, UniProt P53667)
method.summary: Binding affinity to recombinant LIMK1 (330 to 637 residues) (unknown origin) expressed in baculovirus infected insect cells assessed as change in melting temperature at 10 uM by differential scanning fluorimetry
Sequence (P53667 whole entry, looked up, the tested form may be a part): as the sequence (P53667 whole entry, the tested form may be a part) above
test.readout: ΔTm (°C)

[[record]]
mol_smiles = "CN(Cc1ccccc1)C(=O)c1ccc(S(=O)(=O)Nc2ccccc2)cc1"
test_readout = "ΔTm"
experimental_value = 4.5

[[record]]
mol_smiles = "O=C(c1ccc(S(=O)(=O)Nc2ccccc2)cc1)N(CCc1ccccc1)Cc1ccccc1"
test_readout = "ΔTm"
experimental_value = 8.6

[[record]]
mol_smiles = "CN(CCc1ccccc1)C(=O)c1ccc(S(=O)(=O)Nc2ccccc2)cc1"
test_readout = "ΔTm"
experimental_value = 1.3

[[record]]
mol_smiles = "CN(Cc1ccccc1)C(=O)c1ccc(S(=O)(=O)NCCc2ccccc2)cc1"
test_readout = "ΔTm"
experimental_value = 0.9

[[record]]
mol_smiles = "O=C(c1ccc(S(=O)(=O)Nc2ccccc2)cc1)N(CCc1cn(Cc2ccccc2)nn1)Cc1ccccc1"
test_readout = "ΔTm"
experimental_value = 6.8

[[record]]
mol_smiles = "CN(Cc1ccccc1)C(=O)c1ccc(S(=O)(=O)Nc2cccc(Cl)c2)cc1"
test_readout = "ΔTm"
experimental_value = 0.9

